Hey, just so you know, these numbers are from paper PMC10397247.

Quick reference for interaction score among some binders
Target: T1, 4H338-bN
T1 chain: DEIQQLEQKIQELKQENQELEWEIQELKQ
Test: two-hybrid library CCNG1;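 note: natural log of median RNA to DNA barcode read ratio; higher means stronger binding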
MEASURE_NAME: interaction score

> print(dat)
                                     binder       measure.name  readout.number
1  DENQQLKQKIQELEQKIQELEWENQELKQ [4H1828-bN]  interaction score          -0.738
2  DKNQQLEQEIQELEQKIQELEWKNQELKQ [4H3112-bN]  interaction score          -0.816
3  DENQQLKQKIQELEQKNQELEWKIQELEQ [4H1845-bN]  interaction score          -0.586
4  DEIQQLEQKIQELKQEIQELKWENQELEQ [4H331-bN]  interaction score          -0.434
5  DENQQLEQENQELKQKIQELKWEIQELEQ [4H1257-bN]  interaction score          -0.857
6  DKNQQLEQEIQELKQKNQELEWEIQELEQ [4H3185-bN]  interaction score           -1.14
7  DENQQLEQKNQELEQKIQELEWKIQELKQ [4H1446-bN]  interaction score          -0.426
